- System: UV4 (Cricetulus griseus)
- assay: Relative cytotoxic potency given as Hypersensitivity ratio of (IC50 for AA8 cell line) to (IC50 for UV4 cell line)
We label by threshold. Values of HF strictly beneath 40 are Fulfilled. Values of 40 and up are Not fulfilled.

Problem: For the molecule "Cl.Cl.Cl.Cl.ClCCN(CCCl)c1ccc(OCCCNc2c3ccccc3nc3ccccc23)cc1" , is HF under 40?
Not fulfilled

Problem: For the molecule "Cl.Cl.Cl.Cl.ClCCN(CCCl)c1ccc(SCCCNc2c3ccccc3nc3ccccc23)cc1" , is HF under 40?
Fulfilled

Problem: For the molecule "O=C(O)CCCc1ccc(N(CCCl)CCCl)cc1" , is HF under 40?
Not fulfilled

Problem: For the molecule "Cl.Cl.Cl.Cl.ClCCN(CCCl)c1ccc(CCCCCNc2c3ccccc3nc3ccccc23)cc1" , is HF under 40?
Not fulfilled

Problem: For the molecule "Cl.Cl.Cl.Cl.ClCCN(CCCl)c1ccc(CCCNc2c3ccccc3nc3ccccc23)cc1" , is HF under 40?
Not fulfilled

Problem: For the molecule "ClCCN(CCCl)c1ccc(OCCCCNc2c3ccccc3nc3ccccc23)cc1" , is HF under 40?
Not fulfilled

Problem: For the molecule "Cl.O=S(=O)(CCCNc1c2ccccc2nc2ccccc12)c1ccc(N(CCCl)CCCl)cc1" , is HF under 40?
Fulfilled

Problem: For the molecule "ClCCN(CCCl)c1ccc(CCCCCCNc2c3ccccc3nc3ccccc23)cc1" , is HF under 40?
Fulfilled

Problem: For the molecule "ClCCN(CCCl)c1ccc(OCCCCCNc2c3ccccc3nc3ccccc23)cc1" , is HF under 40?
Not fulfilled

Problem: For the molecule "Cl.ClCCN(CCCl)c1ccc(OCCNc2c3ccccc3nc3ccccc23)cc1" , is HF under 40?
Not fulfilled

Problem: For the molecule "ClCCN(CCCl)c1ccc(SCCCCCNc2c3ccccc3nc3ccccc23)cc1" , is HF under 40?
Fulfilled

Problem: For the molecule "Cl.Cl.Cl.Cl.ClCCN(CCCl)c1ccc(SCCNc2c3ccccc3nc3ccccc23)cc1" , is HF under 40?
Fulfilled

Problem: For the molecule "Cl.O=S(=O)(CCNc1c2ccccc2nc2ccccc12)c1ccc(N(CCCl)CCCl)cc1" , is HF under 40?
Fulfilled

Problem: For the molecule "Cl.O=S(=O)(CCCCNc1c2ccccc2nc2ccccc12)c1ccc(N(CCCl)CCCl)cc1" , is HF under 40?
Fulfilled

Problem: For the molecule "Cl.ClCCN(CCCl)c1ccc(SCCCCNc2c3ccccc3nc3ccccc23)cc1" , is HF under 40?
Fulfilled

Problem: For the molecule "Cl.Cl.Cl.Cl.ClCCN(CCCl)c1ccc(CCCCNc2c3ccccc3nc3ccccc23)cc1" , is HF under 40?
Fulfilled

Problem: For the molecule "O=S(=O)(CCCCCNc1c2ccccc2nc2ccccc12)c1ccc(N(CCCl)CCCl)cc1" , is HF under 40?
Fulfilled

---

Give measured KH for each item. Keep answers brief.
- assay: Rate constant for hydrolysis in aqueous acetone.
- Assay type: ADME
- Set-up: scale not given here
- measurement_conditions: buffer
# number only, unit s⁻¹ dropped from output

Data point: "Cl.Cl.Cl.Cl.ClCCN(CCCl)c1ccc(CCCNc2c3ccccc3nc3ccccc23)cc1" ; KH = 14500

Data point: "ClCCN(CCCl)c1ccc(CCCCCCNc2c3ccccc3nc3ccccc23)cc1" ; KH = 33900

Data point: "Cl.Cl.Cl.Cl.ClCCN(CCCl)c1ccc(CCCCNc2c3ccccc3nc3ccccc23)cc1" ; KH = 20600

Data point: "Cl.Cl.Cl.Cl.ClCCN(CCCl)c1ccc(CCCCCNc2c3ccccc3nc3ccccc23)cc1" ; KH = 32000

---

- assay: Relative lipophilicity
- Type: physicochemical
- measurement_conditions: octanol/water
parameter_measured: Relative lipophilicity

Data point: "ClCCN(CCCl)c1ccc(CCCCCCNc2c3ccccc3nc3ccccc23)cc1" ; Relative lipophilicity = 2.29

Data point: "Cl.Cl.Cl.Cl.ClCCN(CCCl)c1ccc(CCCCCNc2c3ccccc3nc3ccccc23)cc1" ; Relative lipophilicity = 1.75

Data point: "Cl.Cl.Cl.Cl.ClCCN(CCCl)c1ccc(SCCCNc2c3ccccc3nc3ccccc23)cc1" ; Relative lipophilicity = 0.79

Data point: "Cl.O=S(=O)(CCCNc1c2ccccc2nc2ccccc12)c1ccc(N(CCCl)CCCl)cc1" ; Relative lipophilicity = -1.14

Data point: "Cl.Cl.Cl.Cl.ClCCN(CCCl)c1ccc(OCCCNc2c3ccccc3nc3ccccc23)cc1" ; Relative lipophilicity = 0.26

Data point: "Cl.O=S(=O)(CCNc1c2ccccc2nc2ccccc12)c1ccc(N(CCCl)CCCl)cc1" ; Relative lipophilicity = -1.17

Data point: "Cl.O=S(=O)(CCCCNc1c2ccccc2nc2ccccc12)c1ccc(N(CCCl)CCCl)cc1" ; Relative lipophilicity = -0.92

Data point: "Cl.Cl.Cl.Cl.ClCCN(CCCl)c1ccc(CCCCNc2c3ccccc3nc3ccccc23)cc1" ; Relative lipophilicity = 1.21

Data point: "Cl.Cl.Cl.Cl.ClCCN(CCCl)c1ccc(SCCNc2c3ccccc3nc3ccccc23)cc1" ; Relative lipophilicity = 0.42

Data point: "Cl.ClCCN(CCCl)c1ccc(SCCCCNc2c3ccccc3nc3ccccc23)cc1" ; Relative lipophilicity = 1.22

Data point: "Cl.Cl.Cl.Cl.ClCCN(CCCl)c1ccc(CCCNc2c3ccccc3nc3ccccc23)cc1" ; Relative lipophilicity = 0.67

Data point: "ClCCN(CCCl)c1ccc(SCCCCCNc2c3ccccc3nc3ccccc23)cc1" ; Relative lipophilicity = 1.76

Data point: "ClCCN(CCCl)c1ccc(OCCCCCNc2c3ccccc3nc3ccccc23)cc1" ; Relative lipophilicity = 1.18

Data point: "O=S(=O)(CCCCCNc1c2ccccc2nc2ccccc12)c1ccc(N(CCCl)CCCl)cc1" ; Relative lipophilicity = -0.38

Data point: "ClCCN(CCCl)c1ccc(OCCCCNc2c3ccccc3nc3ccccc23)cc1" ; Relative lipophilicity = 0.64

Data point: "Cl.ClCCN(CCCl)c1ccc(OCCNc2c3ccccc3nc3ccccc23)cc1" ; Relative lipophilicity = -0.02

---

Give measured KNBP for each item. Keep answers brief.
- assay: Rate constant for alkylation of 4-(4-nitrobenzyl)pyridine
- Assay type: ADME
# number only, unit s⁻¹ dropped from output

Data point: "Cl.Cl.Cl.Cl.ClCCN(CCCl)c1ccc(CCCCNc2c3ccccc3nc3ccccc23)cc1" ; KNBP = 225000

Data point: "Cl.Cl.Cl.Cl.ClCCN(CCCl)c1ccc(CCCNc2c3ccccc3nc3ccccc23)cc1" ; KNBP = 146000

Data point: "Cl.Cl.Cl.Cl.ClCCN(CCCl)c1ccc(CCCCCNc2c3ccccc3nc3ccccc23)cc1" ; KNBP = 144000

Data point: "ClCCN(CCCl)c1ccc(CCCCCCNc2c3ccccc3nc3ccccc23)cc1" ; KNBP = 157000

---

- System: P388
- assay: Increase in life span of the drug treated animals against P388 leukemia when treated at a optimal dose of 45 mg/kg
- Type: functional
- measurement_conditions: Mus musculus
Give measured ILS at 45 mg/kg for each item. Keep answers brief.
# number only, unit % dropped from output

Data point: "Cl.Cl.Cl.Cl.ClCCN(CCCl)c1ccc(CCCCNc2c3ccccc3nc3ccccc23)cc1" ; ILS at 45 mg/kg = 52

Data point: "Cl.Cl.Cl.Cl.ClCCN(CCCl)c1ccc(CCCCCNc2c3ccccc3nc3ccccc23)cc1" ; ILS at 45 mg/kg = 58

Data point: "Cl.Cl.Cl.Cl.ClCCN(CCCl)c1ccc(CCCNc2c3ccccc3nc3ccccc23)cc1" ; ILS at 45 mg/kg = 25

Data point: "ClCCN(CCCl)c1ccc(OCCCCNc2c3ccccc3nc3ccccc23)cc1" ; ILS at 45 mg/kg = 47
